Assay: Quantitative High-Throughput drug screen in 47 multiple myeloma cell lines against the NCATS MIPE library collection: ARD_JJKsccE7 cell viability assay (AID 1918929)
Details: ARD myeloma cell line viability, CellTiter-Glo, 48 h; series mostly up to 45.8 µM
Records with an inconclusive call do not appear. The source made the active and inactive calls. The call rests on the fitted dose curve; in most records, active means well fitted cell-killing curve with a large enough effect; inconclusive means small, poorly fitted or top-dose-only effect, or effect the other way; inactive means no such curve, though single readings can be large or run the other way. Non-standard residues stand in square brackets, D forms with d. Residues, ends and D or L forms follow the SMILES beside them. *: point of attachment. Sta = CC(C)C[C@H](N)[C@@H](O)CC(=O)O; Isovaleryl = CC(C)CC(=O)*
A correct response names exactly one class from active, inactive

Q: Could you please tell me the result logged for O=c1c(O)c(-c2ccc(O)cc2O)oc2cc(O)cc(O)c12 in this assay?
Result: inactive

Q: Could you please tell me the result logged for COc1ccc2cc([C@H](C)C(=O)O)ccc2c1 in this assay?
Result: inactive

Q: Could you please tell me the result logged for CNC[C@@H](O)[C@@H](O)[C@H](O)[C@H](O)CO in this assay?
Result: inactive

Q: Could you please tell me the result logged for COC1=C(OC)C(=O)C(CCCCCCCCCCO)=C(C)C1=O in this assay?
Result: active

Q: Could you please tell me the result logged for CCCCCCCCOc1ccccc1C(=O)Nc1ccc(C(=O)OCC[N+](C)(CC)CC)cc1 in this assay?
Result: inactive

Q: Could you please tell me the result logged for Cc1cccc(C)c1OCC(=O)N[C@@H](Cc1ccccc1)[C@@H](O)C[C@H](Cc1ccccc1)NC(=O)[C@H](C(C)C)N1CCCNC1=O in this assay?
Result: active

Q: Could you please tell me the result logged for CC(C)CC(=O)N[C@H](C(=O)N[C@H](C(=O)N[C@@H](CC(C)C)[C@@H](O)CC(=O)N[C@@H](C)C(=O)N[C@@H](CC(C)C)[C@@H](O)CC(=O)O)C(C)C)C(C)C (Isovaleryl-VV[Sta]A[Sta]-OH) in this assay?
Result: inactive

Q: Could you please tell me the result logged for CCOC(=O)C1=C[C@@H](OC(CC)CC)[C@H](NC(C)=O)[C@@H](N)C1 in this assay?
Result: inactive
